Every entry's value here was drawn from PubChem BioAssay AID504444.

experiment: Nrf2 qHTS screen for inhibitors; details: A549 ARE-Fluc reporter, luciferase luminescence, 18-24 h; series mostly up to 46 µM; note: nearly all actives have a fitted effect of over 60% in size
The whole screen tested about 360,000 compounds, of which about 7,500 (2.1%) were called active. Inconclusive results (about 20%) are left out. Calls come from the whole dose curve; as a rule, active = well fitted inhibition curve with a large enough effect; inconclusive = small, poorly fitted or top-dose-only effect, or effect the other way; inactive = flat fitted curve, though single readings scatter. The full list was thinned out, with actives kept by preference.
Result category, one only: Y = active, N = inactive

Examples from the recorded data:
[
  {
    "compound": "CC(=O)N1c2ccc(S(=O)(=O)N3CCCC(C(=O)NCc4ccc(Cl)cc4)C3)cc2CC1C (stereo not given)",
    "class_label": "Y"
  },
  {
    "compound": "CC(=O)N1CCCc2cc(S(=O)(=O)CCC(=O)N3CCN(c4ccccc4)CC3)ccc21",
    "class_label": "N"
  },
  {
    "compound": "Cc1ccc(S(=O)(=O)N2CCCC(C(=O)N3CCN(C)CC3)C2)cc1 (stereo not given)",
    "class_label": "N"
  },
  {
    "compound": "CC(=O)N1c2ccc(S(=O)(=O)N3CCC(C(=O)N4CCN(c5ccccc5)CC4)CC3)cc2CC1C (stereo not given)",
    "class_label": "N"
  }
]

INPUT: Test call, this compound: CC(=O)N1c2ccc(S(=O)(=O)N3CCCC(C(=O)Nc4cccc(Cl)c4)C3)cc2CC1C (stereo not given)
OUTPUT: Y
